The values you see were collected from patent US20100254975A1.

- TEST_TARGET: a4b7(R213S) (human) (UniProt P13612)
- Sequence (P13612 34-1032, chain 1 of 2): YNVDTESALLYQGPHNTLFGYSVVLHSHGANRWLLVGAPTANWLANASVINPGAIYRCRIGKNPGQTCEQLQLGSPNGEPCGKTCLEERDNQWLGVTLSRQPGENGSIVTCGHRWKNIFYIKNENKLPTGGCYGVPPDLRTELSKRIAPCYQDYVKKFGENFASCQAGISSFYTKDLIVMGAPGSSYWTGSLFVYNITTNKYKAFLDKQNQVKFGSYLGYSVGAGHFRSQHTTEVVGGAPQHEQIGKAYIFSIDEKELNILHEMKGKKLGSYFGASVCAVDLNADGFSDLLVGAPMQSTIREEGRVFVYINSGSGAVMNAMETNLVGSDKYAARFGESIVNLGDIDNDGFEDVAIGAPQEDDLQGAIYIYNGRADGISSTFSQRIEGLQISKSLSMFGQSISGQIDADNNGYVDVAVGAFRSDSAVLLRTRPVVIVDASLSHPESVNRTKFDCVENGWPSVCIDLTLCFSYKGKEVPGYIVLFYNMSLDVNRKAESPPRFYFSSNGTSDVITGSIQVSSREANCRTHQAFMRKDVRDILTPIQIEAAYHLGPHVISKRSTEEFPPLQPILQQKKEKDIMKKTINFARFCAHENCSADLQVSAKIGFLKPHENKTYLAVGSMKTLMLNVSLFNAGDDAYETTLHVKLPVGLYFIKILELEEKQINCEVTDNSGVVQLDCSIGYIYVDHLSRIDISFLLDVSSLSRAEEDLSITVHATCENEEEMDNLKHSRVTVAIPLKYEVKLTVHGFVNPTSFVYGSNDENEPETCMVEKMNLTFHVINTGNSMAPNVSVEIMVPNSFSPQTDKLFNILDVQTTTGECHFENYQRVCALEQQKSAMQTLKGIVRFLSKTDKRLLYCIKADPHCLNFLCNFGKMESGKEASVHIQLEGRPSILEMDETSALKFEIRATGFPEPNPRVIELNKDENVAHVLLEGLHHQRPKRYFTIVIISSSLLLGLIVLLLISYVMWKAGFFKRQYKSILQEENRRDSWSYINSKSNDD
- Sequence (P26010 20-798 R213S, chain 2 of 2, further chain): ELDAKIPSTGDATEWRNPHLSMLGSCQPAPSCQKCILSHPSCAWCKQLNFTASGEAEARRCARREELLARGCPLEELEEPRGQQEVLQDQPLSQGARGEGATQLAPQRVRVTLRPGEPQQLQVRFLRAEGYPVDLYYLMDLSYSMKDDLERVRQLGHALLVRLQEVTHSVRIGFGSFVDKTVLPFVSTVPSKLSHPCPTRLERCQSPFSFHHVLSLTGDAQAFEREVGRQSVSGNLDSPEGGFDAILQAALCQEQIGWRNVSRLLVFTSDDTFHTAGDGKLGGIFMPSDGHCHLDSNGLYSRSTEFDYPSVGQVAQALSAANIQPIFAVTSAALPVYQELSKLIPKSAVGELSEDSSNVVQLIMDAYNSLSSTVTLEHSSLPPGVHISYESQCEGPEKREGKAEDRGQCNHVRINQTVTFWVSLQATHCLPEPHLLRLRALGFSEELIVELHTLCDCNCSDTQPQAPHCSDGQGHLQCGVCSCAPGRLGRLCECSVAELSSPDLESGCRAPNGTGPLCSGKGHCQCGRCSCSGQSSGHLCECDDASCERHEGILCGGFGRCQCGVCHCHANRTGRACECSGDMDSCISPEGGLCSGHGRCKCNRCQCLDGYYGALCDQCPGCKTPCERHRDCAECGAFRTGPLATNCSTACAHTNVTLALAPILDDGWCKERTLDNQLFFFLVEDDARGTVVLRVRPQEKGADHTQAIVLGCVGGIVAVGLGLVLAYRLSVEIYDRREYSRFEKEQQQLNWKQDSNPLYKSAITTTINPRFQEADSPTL
- TEST_DETAILS: FACS on transfected 293 cells, 1 microG/ml, PE anti-human IgG
OBSERVABLE: fluorescence staining intensity (geometric mean)
Lab note: jot down the number only; don't add units.

1A10 (antibody, V domains shown, Fully human monoclonal from XenoMouse XG2kl or XG4kl mice (human IgG2 or IgG4); kappa light chain; also called 1A10K; 1A10H) VH: QVQLVQSGAEVKKPGASVKVSCKVSGYTLNDLSMHWVRQAPGKGLEWMGGFDPAEGKIISAQKFQDRVTMTDDTSTDTAYMELSSLRSEDSAVYYCATLDFSSWFDPWGQGTLVTVSS VL: DIQMTQSPSSVSASVGDRVTITCRASQGVSSWLAWYQQKPGMAPKLLIYAASILQSGVPSRFSGSGSGTDFTLTISSLQPEDFATYYCQQANSFPWTFGQGTKVEIK; 31

In plain terms, 27G8 (antibody, V domains shown, Fully human monoclonal from XenoMouse (human IgG2 or IgG4); lambda light chain; PE-conjugated in the cynomolgus study; also called 27G8L; 27G8H) VH: EVQLVESGGGLVQPGGSLRLSCAASGFTFSSYWMSWVRQASGKGLEWVANIKQDGSEKYYVDSVKGRFTISRDNAKNSLYLQMNSLRAEDTAVYYCAREGGYDWNYADYYGMDVWGQGTTVTVSS VL: QSVLTQPPSVSEAPRQRVTISCSGSNSNIGNNPVNWYQLFPGRAPKLLIYHDDLLPSGVSDRFSGSRSGTSASLAISGLQSEDETDYYCTAWDDSLNGWVFGGGTKLTVL has a documented fluorescence staining intensity (geometric mean) of 59

Summary for this binder, 17C8 (antibody, V domains shown, Fully human monoclonal from XenoMouse (human IgG2 or IgG4); kappa light chain; also called 17C8K; 17C8H) VH: QVQLVESGGGLVKPGGSLRLSCAASGFTFSDYYMSWIRQAPGKGLEWLSYISNSGSAMYYADSVKGRFTISRDNARNSLYLQMNSLRAEDTAVYYCAREYSSGWFFFESWGQGTLVTVSS VL: EIVMTQSPATLSVSPGERATLSCRASQSVSSNLVWYQQKPGQAPRLLIYGASTRATGIPARFSGSGSGTDFTLTISSLQSEDFAVYYCQQYDDWPPLTFGGGTTVEIK : fluorescence staining intensity (geometric mean) is 49

The reported fluorescence staining intensity (geometric mean) of the binder 26G2 (antibody, V domains shown, Fully human monoclonal from XenoMouse (human IgG2 or IgG4); kappa light chain; also called 26G2k; 26G2K) VH: QVQLVESGGGLVKPGGSLRLSCAASGFTFSDYYMSWIRQAPGKGLEWVSYISSIGSAIHYADSVKGRFTISRDNAKNSLYLQMNSLRAEDTAVYYCAREYSSGWAYFDYWGQGTLVTVSS VL: DIQMTQSPSSVSASVGDRVTITCRASQDISSWLAWYQQKPGTAPKVLIYSASSLQNGVPSRFSGRGSGTDFALTISSLQPEDFATYYCQQADSFPWTFGRGTKVEIK was 38
